# protocol description: Pharmacokinetics of Compound A, plasma concentrations after IV infusion
# Type: in vivo, human
# assay context: both sexes, human, plasma, intravenous, ENA-001 high dose, N 12; read-out: Cmax Geometric Mean
readout label: Cmax (ng/mL)

- CCCNc1nc(NCCC)nc(N(C)OC)n1: 1510

###

# protocol description: Pharmacokinetics of Compound A, plasma concentrations after IV infusion
# Type: in vivo, human
# assay context: both sexes, human, plasma, intravenous, high dose; read-out: highest individual Cmax
readout label: Cmax (ng/mL)

- CCCNc1nc(NCCC)nc(N(C)OC)n1: 2600

###

# protocol description: Pharmacokinetics of Compound A, plasma concentrations after IV infusion
# Format: in vivo, human
# assay context: both sexes, human, plasma, intravenous, ENA-001 high dose, N 12; read-out: t1/2 Geometric Mean (converted)
readout label: half-life (h)

* CCCNc1nc(NCCC)nc(N(C)OC)n1 | 5.49
